# target-entity: T1, Human CD137 ECD (human)
# T1 construct: entry includes C-terminal His-tag and biotin acceptor peptide; also called human CD137 extracellular domain; 4-1BB
# T1 sequence (chain, as listed by the source limits assumed): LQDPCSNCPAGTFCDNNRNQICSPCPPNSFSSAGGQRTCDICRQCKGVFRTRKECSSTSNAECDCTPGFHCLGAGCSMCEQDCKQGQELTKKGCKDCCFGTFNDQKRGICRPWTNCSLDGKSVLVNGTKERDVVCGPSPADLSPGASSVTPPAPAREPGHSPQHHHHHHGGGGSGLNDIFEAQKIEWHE
# test-details: Biacore SPR, vs parent H183/L072
property-measured: fold change of affinity (fold)
One number for each entry, in fold.

Quick batch: fold change of affinity for everything below.
1. H183/L072 VL L33T (antibody, name in Kabat numbering, V domains shown, Dual-Ig) VH: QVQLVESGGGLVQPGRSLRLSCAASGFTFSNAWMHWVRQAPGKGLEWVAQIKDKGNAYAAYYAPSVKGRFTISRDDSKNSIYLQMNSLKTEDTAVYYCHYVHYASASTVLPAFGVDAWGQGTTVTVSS VL: DIVMTQSPLSLPVTPGEPASISCQASQELVHMNRNTYTHWYQQKPGQAPRLLIYKVSNRFPGVPDRFSGSGSGTDFTLKISRVEAEDVGVYYCAQGTSVPFTFGQGTKLEIK
2. H183/L072 VL T97N (antibody, name in Kabat numbering, V domains shown, Dual-Ig) VH: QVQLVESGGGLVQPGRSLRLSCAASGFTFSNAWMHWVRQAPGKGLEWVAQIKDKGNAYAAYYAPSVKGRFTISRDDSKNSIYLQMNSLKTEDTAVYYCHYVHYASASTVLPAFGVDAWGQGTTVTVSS VL: DIVMTQSPLSLPVTPGEPASISCQASQELVHMNRNTYLHWYQQKPGQAPRLLIYKVSNRFPGVPDRFSGSGSGTDFTLKISRVEAEDVGVYYCAQGTSVPFNFGQGTKLEIK
3. H183/L072 VL E27aW (antibody, name in Kabat numbering, V domains shown, Dual-Ig) VH: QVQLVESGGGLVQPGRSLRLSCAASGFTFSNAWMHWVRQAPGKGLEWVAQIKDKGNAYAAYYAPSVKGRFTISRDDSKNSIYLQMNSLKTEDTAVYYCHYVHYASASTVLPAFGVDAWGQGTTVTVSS VL: DIVMTQSPLSLPVTPGEPASISCQASQWLVHMNRNTYLHWYQQKPGQAPRLLIYKVSNRFPGVPDRFSGSGSGTDFTLKISRVEAEDVGVYYCAQGTSVPFTFGQGTKLEIK
4. H183/L072 VL Q24S (antibody, name in Kabat numbering, V domains shown, Dual-Ig) VH: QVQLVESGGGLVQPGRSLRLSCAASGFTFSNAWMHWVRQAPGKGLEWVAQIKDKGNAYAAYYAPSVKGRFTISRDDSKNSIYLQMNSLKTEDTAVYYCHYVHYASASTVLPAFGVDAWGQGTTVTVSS VL: DIVMTQSPLSLPVTPGEPASISCSASQELVHMNRNTYLHWYQQKPGQAPRLLIYKVSNRFPGVPDRFSGSGSGTDFTLKISRVEAEDVGVYYCAQGTSVPFTFGQGTKLEIK

0.2
0.5
1
1

Query H183/L072 VL Q27M (antibody, name in Kabat numbering, V domains shown, Dual-Ig) VH: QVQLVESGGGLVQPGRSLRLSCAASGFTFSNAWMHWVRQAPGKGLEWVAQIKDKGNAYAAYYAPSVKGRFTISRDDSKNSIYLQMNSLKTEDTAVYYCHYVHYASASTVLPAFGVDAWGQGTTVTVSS VL: DIVMTQSPLSLPVTPGEPASISCQASMELVHMNRNTYLHWYQQKPGQAPRLLIYKVSNRFPGVPDRFSGSGSGTDFTLKISRVEAEDVGVYYCAQGTSVPFTFGQGTKLEIK yields fold change of affinity of 0.9
